These measurements were taken from the kinase profiling compilation of Christmann-Franck et al. (2016).

- SYSTEM_UNDER_TEST: TAOK3 (human) (UniProt Q9H2K8)
- Sequence (Q9H2K8 whole entry, looked up): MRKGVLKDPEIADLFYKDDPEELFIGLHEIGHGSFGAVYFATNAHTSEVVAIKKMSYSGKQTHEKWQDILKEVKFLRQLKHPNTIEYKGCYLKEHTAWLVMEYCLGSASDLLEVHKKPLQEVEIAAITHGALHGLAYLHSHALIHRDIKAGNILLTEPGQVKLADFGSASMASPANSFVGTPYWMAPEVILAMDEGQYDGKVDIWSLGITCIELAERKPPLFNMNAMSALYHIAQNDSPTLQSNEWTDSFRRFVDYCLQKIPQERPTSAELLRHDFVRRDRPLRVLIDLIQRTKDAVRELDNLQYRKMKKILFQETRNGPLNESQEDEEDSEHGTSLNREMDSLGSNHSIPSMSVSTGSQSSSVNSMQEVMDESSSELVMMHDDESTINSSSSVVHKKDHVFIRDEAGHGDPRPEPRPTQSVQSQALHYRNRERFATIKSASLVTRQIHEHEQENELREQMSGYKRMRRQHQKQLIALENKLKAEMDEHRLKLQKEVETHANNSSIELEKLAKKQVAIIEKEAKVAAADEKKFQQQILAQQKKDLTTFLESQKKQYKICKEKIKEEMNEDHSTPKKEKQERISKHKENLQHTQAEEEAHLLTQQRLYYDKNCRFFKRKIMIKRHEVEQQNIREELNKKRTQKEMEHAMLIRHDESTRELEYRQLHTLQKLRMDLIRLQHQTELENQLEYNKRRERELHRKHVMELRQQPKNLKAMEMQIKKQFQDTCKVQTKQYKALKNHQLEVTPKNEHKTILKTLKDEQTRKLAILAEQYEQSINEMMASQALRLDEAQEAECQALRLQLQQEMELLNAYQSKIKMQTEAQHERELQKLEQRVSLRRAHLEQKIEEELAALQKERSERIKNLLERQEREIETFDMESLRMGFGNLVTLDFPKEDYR
- TEST_DESCRIPTION: KINOMEscan competition binding
- CONDITION_PARAMETERS: compound 10.0 µM
Catalogue of kinase still bound, per cent of control values

- COMPOUND: "CCC(=O)N1CCN(c2ccc(-n3c(=O)ccc4cnc5ccc(-c6cnc7ccccc7c6)cc5c43)cc2C(F)(F)F)CC1"
  kinase still bound, per cent of control (%): 76
- COMPOUND: "Cc1cc([C@@H](C)Nc2ccccc2C(=O)O)c2nc(N3CCOCC3)cc(=O)n2c1"
  kinase still bound, per cent of control (%): 100
- COMPOUND: "Nc1ccc(-c2ccc3ncc4ccc(=O)n(-c5cccc(C(F)(F)F)c5)c4c3c2)cn1"
  kinase still bound, per cent of control (%): 80
- COMPOUND: "COc1cc(N2CCN(C)CC2)ccc1Nc1nc(N)c(C(=O)c2c(Cl)cccc2Cl)s1"
  kinase still bound, per cent of control (%): 12
- COMPOUND: "CC[C@@H]1C(=O)N(C)c2cnc(Nc3ccc(C(=O)NC4CCN(C)CC4)cc3OC)nc2N1C1CCCC1"
  kinase still bound, per cent of control (%): 100
- COMPOUND: "O=C(O)c1ccc(Nc2ncc3c(n2)-c2ccc(Cl)cc2C(c2c(F)cccc2F)=NC3)cc1"
  kinase still bound, per cent of control (%): 95
- COMPOUND: "CCN1CCN(Cc2ccc(Nc3ncc4c(n3)N(C)c3ccccc3C(=O)N4C)cc2C(F)(F)F)CC1"
  kinase still bound, per cent of control (%): 0.1
- COMPOUND: "COc1cc(C(=O)NC2CCN(C)CC2)ccc1Nc1ncc2c(n1)N(C1CCCC1)C(C)CC(=O)N2C (stereo not given)"
  kinase still bound, per cent of control (%): 100
- COMPOUND: "Cc1ccc(NC(=O)c2cccc(C(C)(C)C#N)c2)cc1Nc1ccc2ncn(C)c(=O)c2c1"
  kinase still bound, per cent of control (%): 100
- COMPOUND: "COc1cc(C(=O)NC2CCN(C)CC2)ccc1Nc1ncc2c(n1)N(C1CCCC1)CCC(=O)N2C(C)C"
  kinase still bound, per cent of control (%): 100
- COMPOUND: "N#Cc1c(NC(=O)c2cccc3ccccc23)sc2c1CCCC2"
  kinase still bound, per cent of control (%): 87
- COMPOUND: "C=CC(=O)Nc1cc(NC(=O)c2ccc(C)c(NC(=O)c3ccno3)c2)cc(C(F)(F)F)c1"
  kinase still bound, per cent of control (%): 77
- COMPOUND: "C=CC(=O)Nc1cccc(Nc2nc(N[C@H]3CC[C@H](N(C)C)CC3)nc3c2ncn3C(C)C)c1"
  kinase still bound, per cent of control (%): 28
- COMPOUND: "CCOc1cc2ncc(C#N)c(Nc3ccc(OCc4ccccn4)c(Cl)c3)c2cc1NC(=O)/C=C/CN(C)C"
  kinase still bound, per cent of control (%): 75
- COMPOUND: "C=CC(=O)Nc1cccc(Oc2nc(Nc3ccc(N4CCN(C)CC4)cc3OC)ncc2Cl)c1"
  kinase still bound, per cent of control (%): 100
- COMPOUND: "Cc1ccc(C(=O)Nc2cccc(C(F)(F)F)c2)cc1Nc1cncc(C(N)=O)c1"
  kinase still bound, per cent of control (%): 100
- COMPOUND: "O=C(NOC[C@H](O)CO)c1ccc(F)c(F)c1Nc1ccc(I)cc1F"
  kinase still bound, per cent of control (%): 89
- COMPOUND: "CCCS(=O)(=O)Nc1ccc(F)c(C(=O)c2c[nH]c3ncc(-c4ccc(Cl)cc4)cc23)c1F"
  kinase still bound, per cent of control (%): 74
- COMPOUND: "O=C1Nc2ccc(I)cc2/C1=C/c1cc(Br)c(O)c(Br)c1"
  kinase still bound, per cent of control (%): 87
- COMPOUND: "CN(C)C/C=C/C(=O)Nc1cccc(Nc2ncc3c(n2)N(C)c2ccccc2C(=O)N3C)c1"
  kinase still bound, per cent of control (%): 0

---

- SYSTEM_UNDER_TEST: ACVR1B (human)
- TEST_DESCRIPTION: KINOMEscan competition binding
- CONDITION_PARAMETERS: compound 10.0 µM

- CHEM_SMILES: "O=C(NC1CC1)c1cccc(-c2ccc3c(NC(=O)C4CC4)n[nH]c3c2)c1"
  SYSTEM_UNDER_TEST: "ACVR1B (human)"
  kinase still bound, per cent of control [%]: 59
- CHEM_SMILES: "O=C1Nc2ccc(I)cc2/C1=C/c1cc(Br)c(O)c(Br)c1"
  SYSTEM_UNDER_TEST: "ACVR1B (human)"
  kinase still bound, per cent of control [%]: 33
- CHEM_SMILES: "CCCS(=O)(=O)Nc1ccc(F)c(C(=O)c2c[nH]c3ncc(-c4ccc(Cl)cc4)cc23)c1F"
  SYSTEM_UNDER_TEST: "ACVR1B (human)"
  kinase still bound, per cent of control [%]: 78
- CHEM_SMILES: "C[C@@H](Oc1cc(-n2cnc3ccc(CN4CCN(C)CC4)cc32)sc1C(N)=O)c1ccccc1C(F)(F)F"
  SYSTEM_UNDER_TEST: "ACVR1B (human)"
  kinase still bound, per cent of control [%]: 97

---

Catalogue of kinase still bound, per cent of control values
- Test system: PIK3CA (human), P42336 [H1047Y]
- Sequence (P42336 whole entry H1047Y, looked up): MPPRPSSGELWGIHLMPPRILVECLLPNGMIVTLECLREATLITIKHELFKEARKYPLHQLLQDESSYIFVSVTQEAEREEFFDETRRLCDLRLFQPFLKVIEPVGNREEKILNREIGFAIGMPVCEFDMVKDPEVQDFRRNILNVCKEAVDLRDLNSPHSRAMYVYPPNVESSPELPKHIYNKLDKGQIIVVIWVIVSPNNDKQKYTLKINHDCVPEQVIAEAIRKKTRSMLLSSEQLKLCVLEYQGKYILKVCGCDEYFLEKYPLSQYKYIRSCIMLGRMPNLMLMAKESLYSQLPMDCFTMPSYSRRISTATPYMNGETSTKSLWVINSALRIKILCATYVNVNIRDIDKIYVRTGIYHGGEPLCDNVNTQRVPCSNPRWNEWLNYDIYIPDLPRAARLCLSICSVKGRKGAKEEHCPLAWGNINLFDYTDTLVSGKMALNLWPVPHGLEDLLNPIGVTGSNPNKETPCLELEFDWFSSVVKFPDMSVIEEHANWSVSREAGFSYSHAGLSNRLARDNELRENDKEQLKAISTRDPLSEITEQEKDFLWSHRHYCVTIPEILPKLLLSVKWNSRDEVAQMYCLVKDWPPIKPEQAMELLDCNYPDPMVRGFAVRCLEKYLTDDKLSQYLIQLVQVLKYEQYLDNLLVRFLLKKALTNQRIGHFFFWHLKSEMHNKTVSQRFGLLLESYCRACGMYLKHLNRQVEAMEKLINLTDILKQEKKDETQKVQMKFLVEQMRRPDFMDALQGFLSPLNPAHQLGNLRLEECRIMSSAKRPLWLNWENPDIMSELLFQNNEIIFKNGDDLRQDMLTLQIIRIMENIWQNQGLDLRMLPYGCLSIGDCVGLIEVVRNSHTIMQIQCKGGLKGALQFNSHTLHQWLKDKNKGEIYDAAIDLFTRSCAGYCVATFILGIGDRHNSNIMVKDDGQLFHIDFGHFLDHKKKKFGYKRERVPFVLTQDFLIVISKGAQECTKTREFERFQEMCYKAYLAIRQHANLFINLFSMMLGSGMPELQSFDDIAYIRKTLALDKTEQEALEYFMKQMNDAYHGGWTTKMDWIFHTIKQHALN
- TEST_DESCRIPTION: KINOMEscan competition binding
- CONDITION_PARAMETERS: compound 10.0 µM

- MOLECULE: "COc1cc(N2CCN(C)CC2)ccc1Nc1nc(N)c(C(=O)c2c(Cl)cccc2Cl)s1"
  UNITS: "%"
  kinase still bound, per cent of control: 100
- MOLECULE: "CC1=C(C(=O)Nc2cc3cn[nH]c3cc2F)C(c2ccc(C(F)(F)F)cc2)CC(=O)N1 (configuration not stated)"
  UNITS: "%"
  kinase still bound, per cent of control: 43
- MOLECULE: "Cc1ccc2nc(NCCN)c3ncc(C)n3c2c1"
  UNITS: "%"
  kinase still bound, per cent of control: 26
- MOLECULE: "O=c1[nH]c2ccccc2n1C1CCN(Cc2ccc(-c3nc4cc5[nH]cnc5cc4nc3-c3ccccc3)cc2)CC1"
  UNITS: "%"
  kinase still bound, per cent of control: 100
- MOLECULE: "COc1cc(N2CCN(C)CC2)ccc1Nc1ncc2c(n1)N(C)c1ccccc1C(=O)N2C"
  UNITS: "%"
  kinase still bound, per cent of control: 100
- MOLECULE: "C=CC(=O)Nc1ccc(C(=O)c2sc(Nc3ccc(N4CCN(C)CC4)cc3OC)nc2N)cc1"
  UNITS: "%"
  kinase still bound, per cent of control: 88
- MOLECULE: "N#CCNC(=O)c1ccc(-c2ccnc(Nc3ccc(N4CCOCC4)cc3)n2)cc1"
  UNITS: "%"
  kinase still bound, per cent of control: 100
- MOLECULE: "COc1ccc(N(C(=O)Oc2c(C)cccc2C)c2ccnc(Nc3ccc(N4CCN(C)CC4)cc3)n2)c(OC)c1"
  UNITS: "%"
  kinase still bound, per cent of control: 94
- MOLECULE: "COc1cc2ncnc(-n3nc(-c4ccccn4)nc3N)c2cc1OC"
  UNITS: "%"
  kinase still bound, per cent of control: 24
- MOLECULE: "CCCS(=O)(=O)Nc1ccc(F)c(C(=O)c2c[nH]c3ncc(Cl)cc23)c1F"
  UNITS: "%"
  kinase still bound, per cent of control: 90
- MOLECULE: "N#C/C(=C1/Nc2ccccc2S1)c1ccnc(NCCc2cccnc2)n1"
  UNITS: "%"
  kinase still bound, per cent of control: 66
- MOLECULE: "O=C(NOC[C@H](O)CO)c1ccc(F)c(F)c1Nc1ccc(I)cc1F"
  UNITS: "%"
  kinase still bound, per cent of control: 57
- MOLECULE: "CCCS(=O)(=O)Nc1ccc(F)c(C(=O)c2c[nH]c3ncc(-c4ccc(Cl)cc4)cc23)c1F"
  UNITS: "%"
  kinase still bound, per cent of control: 88
- MOLECULE: "Cc1ccc(NC(=O)c2cccc(C(C)(C)C#N)c2)cc1Nc1ccc2ncn(C)c(=O)c2c1"
  UNITS: "%"
  kinase still bound, per cent of control: 100
- MOLECULE: "OCCCNc1cc(-c2ccnc(Nc3cccc(Cl)c3)n2)ccn1"
  UNITS: "%"
  kinase still bound, per cent of control: 100
- MOLECULE: "CNC(=O)Nc1ccc(-c2nc(N3CC4CCC(C3)O4)c3cnn(C4CCC5(CC4)OCCO5)c3n2)cc1"
  UNITS: "%"
  kinase still bound, per cent of control: 9.6
- MOLECULE: "CN(C)C/C=C/C(=O)Nc1ccc(C(=O)Nc2cccc(Nc3nccc(-c4cccnc4)n3)c2)cc1"
  UNITS: "%"
  kinase still bound, per cent of control: 100
- MOLECULE: "CCN1CCN(Cc2ccc(NC(=O)c3ccc(C)c(/C=C/c4cnc5[nH]ccc5c4OC)c3)cc2C(F)(F)F)CC1"
  UNITS: "%"
  kinase still bound, per cent of control: 90
- MOLECULE: "CCOc1cc(N2CCC(O)CC2)ccc1Nc1ncc2c(n1)N(C)c1ccccc1C(=O)N2C"
  UNITS: "%"
  kinase still bound, per cent of control: 100
- MOLECULE: "NC(=O)Nc1cc(-c2cccc(F)c2)sc1C(=O)N[C@@H]1CCCNC1"
  UNITS: "%"
  kinase still bound, per cent of control: 36
- MOLECULE: "CCN1CCN(Cc2ccc(Nc3ncc4c(n3)N(C)c3ccccc3C(=O)N4C)cc2C(F)(F)F)CC1"
  UNITS: "%"
  kinase still bound, per cent of control: 3.3
- MOLECULE: "O=c1cc(N2CCOCC2)oc2c(-c3cccc4c3sc3ccccc34)cccc12"
  UNITS: "%"
  kinase still bound, per cent of control: 11
- MOLECULE: "C[C@@H](Oc1cc(-n2cnc3ccc(CN4CCN(C)CC4)cc32)sc1C(N)=O)c1ccccc1C(F)(F)F"
  UNITS: "%"
  kinase still bound, per cent of control: 32
- MOLECULE: "C=CC(=O)Nc1cccc(Nc2nc(N[C@H]3CC[C@H](N(C)C)CC3)nc3c2ncn3C(C)C)c1"
  UNITS: "%"
  kinase still bound, per cent of control: 90
- MOLECULE: "COc1cc(C(=O)NC2CCN(C)CC2)ccc1Nc1ncc2c(n1)N(C1CCCC1)CCC(=O)N2C(C)C"
  UNITS: "%"
  kinase still bound, per cent of control: 100
- MOLECULE: "C[C@@H](Oc1cc(-c2cnn(C3CCNCC3)c2)cnc1N)c1c(Cl)ccc(F)c1Cl"
  UNITS: "%"
  kinase still bound, per cent of control: 18
- MOLECULE: "O=C(O)c1ccc(Nc2ncc3c(n2)-c2ccc(Cl)cc2C(c2c(F)cccc2F)=NC3)cc1"
  UNITS: "%"
  kinase still bound, per cent of control: 27
